experiment: PPB, human; format: in vitro ADME; conditions: plasma
The entries below come with measured fraction unbound values attached.
Note: the reply should be a number with no unit written.

COMPOUND: COc1cc(-c2cn(C)c(=O)c(C)c2C)cc(OC)c1CN1CCC(N2CCN(c3ccc(NC4CCC(=O)NC4=O)cc3F)CC2)C(F)(F)C1 (single isomer, unassigned) [Compound 176]
ASSAY ENDPOINT: fraction unbound
RECORDED NUMBER: 0.067

Consider now this further compound.
Query: GET /values?readout=fraction unbound&item= COc1cc(-c2cn(C)c(=O)c(C)c2C)cc(OC)c1CN1CCC(N2CCN(c3ccc(NC4CCC(=O)NC4=O)cc3F)CC2)C(F)(F)C1 (centres unmarked) [Compound 172]
Result: 0.088
